study.target: T1, human CD3 expressed on cells (Jurkat, a CD3+ human T-cell line; human T cells) (human, UniProt P07766 23-126; P04234 22-100)
T1 chain 1: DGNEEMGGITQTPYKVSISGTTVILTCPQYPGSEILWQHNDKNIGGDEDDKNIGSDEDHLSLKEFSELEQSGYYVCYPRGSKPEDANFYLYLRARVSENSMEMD
T1 chain 2: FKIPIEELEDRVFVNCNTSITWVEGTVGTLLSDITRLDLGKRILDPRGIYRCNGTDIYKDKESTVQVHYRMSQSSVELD
protocol.text: cell-based or functional assay
Listed next: entries and their corresponding U937 Cytotoxicity Human T-cells [M] (EC50).
endpoint.label: U937 Cytotoxicity Human T-cells [M] (EC50)

[
  {
    "binder": "H2M2704N (antibody, mouse IgG2, V domains shown, mouse IgG2 Fc (H2M), human variable regions) VH: QVQLVESGGGVVQPGRSLRLSCGASGFTFRSYGMHWVRQTPGRGLEWVAMIYYDGNNKYYADSVRGRFTVSRDNSKNTLYLQMSSLRAEDTALYFCARGPGYNWLDPWGQGTLVTVSS VL: EIVMTQSPATLSVSPGERATLSCRASQSISRNLAWYQQKPGQAPRLLIYGASTRATGIPARFSGSGSGTEFTLTISSLQSEDFAVYYCQQYNNRPLTFGGGTEVEIK",
    "recorded.result": "2.49e-12 M"
  },
  {
    "binder": "H2M2886N (antibody, mouse IgG2, V domains shown) VH: QVQLVESGGGVVQPGRSLRLSCAASGFTFRSFGMHWVRQAPGRGLEWVAMIYFDGKNKYYADSVRGRFTISRDNSKNTLYLEMSSLRAEDTAVYFCARGPGYNWLDPWGQGTLVTVSS VL: EIVMTQSPATLSVSPGERVILSCRASQSISRNLAWYQQKPGQAPRLLIYGATTRATGVPARFSGSGSGTEFTLTISSLQSEDFAVFYCQQYNNRPLTFGGGTEVEIK",
    "recorded.result": "8.06e-12 M"
  }
]
